assayed.system: Legumain (Schistosoma mansoni)
Sequence (Q9NFY9 whole entry): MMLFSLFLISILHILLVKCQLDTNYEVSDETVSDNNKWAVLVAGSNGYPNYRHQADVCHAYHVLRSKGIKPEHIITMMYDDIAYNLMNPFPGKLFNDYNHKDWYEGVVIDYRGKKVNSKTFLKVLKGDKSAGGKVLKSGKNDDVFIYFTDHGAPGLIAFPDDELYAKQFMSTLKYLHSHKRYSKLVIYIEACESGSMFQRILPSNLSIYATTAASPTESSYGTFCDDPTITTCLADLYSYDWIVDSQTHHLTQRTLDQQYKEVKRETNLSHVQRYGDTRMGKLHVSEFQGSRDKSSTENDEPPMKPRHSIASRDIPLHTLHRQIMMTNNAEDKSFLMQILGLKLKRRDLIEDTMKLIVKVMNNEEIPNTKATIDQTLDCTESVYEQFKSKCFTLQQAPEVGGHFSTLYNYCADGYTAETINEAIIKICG
assay: AE Enzyme Inhibition Assay
test.conditions: pH 6.8; 22 °C
recorded.endpoint: log10 IC50 (log10 of the value in nM)
Log scale reminder: IC50 in nM, then log10 taken.

Examples with their reported log10 IC50 follow.
record.smiles | assayed.system | observed.value
C[C@H](NC(=O)OCc1ccccc1)C(=O)N[C@@H](C)C(=O)NN(CC(N)=O)C(=O)C=CC(=O)N1CCCCC1 | Legumain (Schistosoma mansoni) | 3.00
COc1ccc(CN(Cc2ccccc2)C(=O)C=CC(=O)N(CC(N)=O)NC(=O)[C@H](C)NC(=O)[C@H](C)NC(=O)OCc2ccccc2)cc1 | Legumain (Schistosoma mansoni) | 1.95
C[C@H](NC(=O)OCc1ccccc1)C(=O)N[C@@H](C)C(=O)NN(CC(N)=O)C(=O)C=CC(=O)N(C)Cc1cccc2ccccc12 | Legumain (Schistosoma mansoni) | 1.54
C[C@H](NC(=O)OCc1ccccc1)C(=O)N[C@@H](C)C(=O)NN(CC(N)=O)C(=O)C=CC(=O)N(C)CCc1ccccc1 | Legumain (Schistosoma mansoni) | 2.78
C[C@H](NC(=O)OCc1ccccc1)C(=O)N[C@@H](C)C(=O)NN(CC(N)=O)C(=O)C=CC(=O)N(Cc1ccccc1)Cc1ccccc1 | Legumain (Schistosoma mansoni) | 1.65
C[C@H](NC(=O)OCc1ccccc1)C(=O)N[C@@H](C)C(=O)NN(CC(N)=O)C(=O)C=CC(=O)N(Cc1ccccc1)c1ccccc1 | Legumain (Schistosoma mansoni) | 1.85
C[C@H](NC(=O)OCc1ccccc1)C(=O)N[C@@H](C)C(=O)NN(CC(N)=O)C(=O)C=CC(=O)NCCc1ccccc1 | Legumain (Schistosoma mansoni) | 2.78
CCCCN(CCCC)C(=O)C=CC(=O)N(CC(N)=O)NC(=O)[C@H](C)NC(=O)[C@H](C)NC(=O)OCc1ccccc1 | Legumain (Schistosoma mansoni) | 2.74

What measured log10 IC50 goes with C[C@H](NC(=O)OCc1ccccc1)C(=O)N[C@@H](C)C(=O)NN(CC(N)=O)C(=O)C=CC(=O)NCc1ccc(F)cc1 ? 2.90

Which log10 IC50 is listed for C[C@H](NC(=O)OCc1ccccc1)C(=O)N[C@@H](C)C(=O)NN(CC(N)=O)C(=O)C=CC(=O)Nc1ccccc1 ? 2.85

Endpoint output: log10 IC50 of C[C@H](NC(=O)OCc1ccccc1)C(=O)N[C@@H](C)C(=O)NN(CC(N)=O)C(=O)C=CC(=O)NCc1ccccc1 . Value? 3.00

log10 IC50 lookup needed for C[C@H](NC(=O)OCc1ccccc1)C(=O)N[C@@H](C)C(=O)NN(CC(N)=O)C(=O)C=CC(=O)N(C)c1ccccc1 , thanks. 1.78

---

// values below are reported IC50
assayed.system: Clan CD, family C13, asparaginyl endopeptidase-like cysteine peptidase (Trichomonas vaginalis (strain ATCC PRA-98 / G3), UniProt A2DYT2)
Sequence (A2DYT2 whole entry): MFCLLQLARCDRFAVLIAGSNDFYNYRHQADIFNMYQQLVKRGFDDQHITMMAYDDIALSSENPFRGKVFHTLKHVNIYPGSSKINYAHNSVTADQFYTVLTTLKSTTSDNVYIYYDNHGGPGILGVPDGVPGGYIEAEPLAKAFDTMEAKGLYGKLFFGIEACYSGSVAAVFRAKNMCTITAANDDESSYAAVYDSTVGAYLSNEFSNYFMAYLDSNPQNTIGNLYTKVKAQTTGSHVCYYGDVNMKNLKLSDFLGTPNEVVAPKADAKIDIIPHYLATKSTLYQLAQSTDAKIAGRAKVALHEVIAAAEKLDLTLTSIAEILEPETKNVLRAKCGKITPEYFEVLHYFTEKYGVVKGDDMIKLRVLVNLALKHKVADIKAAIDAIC
assay: AE Enzyme Inhibition Assay
test.conditions: 25 °C
Unit nM implied. Number only.

Example results:
record.smiles | IC50 (nM)
C[C@H](NC(=O)OCc1ccccc1)C(=O)N[C@@H](C)C(=O)NN(CC(N)=O)C(=O)C=CC(=O)N(C)CCc1ccccc1 | 50
C[C@H](NC(=O)OCc1ccccc1)C(=O)N[C@@H](C)C(=O)NN(CC(N)=O)C(=O)C=CC(=O)N1CCCc2ccccc21 | 3.5
C[C@H](NC(=O)OCc1ccccc1)C(=O)N[C@@H](C)C(=O)NN(CC(N)=O)C(=O)C=Cc1cccnc1 | 8000

Look at this molecule and give its reported IC50. C[C@H](NC(=O)OCc1ccccc1)C(=O)N[C@@H](C)C(=O)NN(CC(N)=O)C(=O)C=CC(=O)N(Cc1ccccc1)Cc1ccccc1 10
